- Assay System: Oxysterols receptor LXR-alpha (Homo sapiens)
- Sequence (Q13133 whole entry): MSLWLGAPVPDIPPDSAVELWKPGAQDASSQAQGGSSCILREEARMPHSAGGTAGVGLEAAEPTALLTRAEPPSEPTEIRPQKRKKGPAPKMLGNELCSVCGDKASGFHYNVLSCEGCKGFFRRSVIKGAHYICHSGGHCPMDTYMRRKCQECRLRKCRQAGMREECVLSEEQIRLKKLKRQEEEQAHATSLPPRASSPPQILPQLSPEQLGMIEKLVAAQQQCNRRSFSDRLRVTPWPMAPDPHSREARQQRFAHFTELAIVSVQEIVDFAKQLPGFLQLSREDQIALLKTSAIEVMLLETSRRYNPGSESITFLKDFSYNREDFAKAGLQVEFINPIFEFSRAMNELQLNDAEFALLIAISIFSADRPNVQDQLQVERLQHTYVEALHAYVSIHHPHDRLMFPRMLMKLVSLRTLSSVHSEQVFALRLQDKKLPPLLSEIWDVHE
- Test Name: Antagonist activity at human LXRalpha expressed in HEK293 cells assessed as inhibition of beta-galactosidase activity by luciferase reporter gene assay
Recorded Endpoint: IC50

>>> observed_result("O=C1c2c(Cl)c(Cl)c(Cl)c(Cl)c2C(=O)N1c1ccc(/C=C/c2ccc(O)c(O)c2)cc1")
"2.7 µM"
>>> observed_result("O=C1c2c(Cl)c(Cl)c(Cl)c(Cl)c2C(=O)N1c1cccc(CCc2ccc(O)c(O)c2)c1")
"6.3 µM"

IC50 measured on COc1ccc(CCc2cccc(N3C(=O)c4c(Cl)c(Cl)c(Cl)c(Cl)c4C3=O)c2)cc1OC = > 30 µM

Entry COc1ccc(CCc2ccc(N3C(=O)c4c(Cl)c(Cl)c(Cl)c(Cl)c4C3=O)cc2)cc1OC ; IC50 = > 30 µM

Short answer for COc1ccc(CCc2cccc(N3C(=O)c4ccccc4C3=O)c2)cc1OC : IC50 was > 30 µM

Item: O=C1c2c(Cl)c(Cl)c(Cl)c(Cl)c2C(=O)N1c1ccccc1CCc1ccccc1 | IC50: > 3 µM

---

Reported pIC50 values for the following compounds.
- Assay System: Oxysterols receptor LXR-beta (Homo sapiens)
- Sequence (P55055 whole entry): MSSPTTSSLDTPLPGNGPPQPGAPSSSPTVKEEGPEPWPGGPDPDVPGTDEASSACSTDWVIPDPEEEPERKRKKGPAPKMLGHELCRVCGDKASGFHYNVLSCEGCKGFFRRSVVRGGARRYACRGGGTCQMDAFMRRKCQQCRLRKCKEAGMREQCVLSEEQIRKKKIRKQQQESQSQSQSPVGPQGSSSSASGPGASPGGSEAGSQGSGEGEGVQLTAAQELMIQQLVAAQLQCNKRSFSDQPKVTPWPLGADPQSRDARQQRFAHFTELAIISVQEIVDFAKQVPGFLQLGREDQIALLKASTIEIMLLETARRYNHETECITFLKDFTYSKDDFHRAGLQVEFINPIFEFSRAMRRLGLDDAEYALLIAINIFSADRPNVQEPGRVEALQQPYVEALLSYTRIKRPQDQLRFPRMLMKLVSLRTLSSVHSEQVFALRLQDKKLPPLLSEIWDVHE
- Test Name: Antagonist activity at human LXRbeta expressed in HEK293 cells assessed as inhibition of beta-galactosidase activity by luciferase reporter gene assay
pIC50: −log10 of the molar value.

Examples with answers:
>>> observed_result("O=C1c2c(Cl)c(Cl)c(Cl)c(Cl)c2C(=O)N1c1ccc(CCc2ccc(O)cc2)cc1")
"< 4.52"
>>> observed_result("O=C1c2c(Cl)c(Cl)c(Cl)c(Cl)c2C(=O)N1c1ccc(CCc2ccccc2)cc1")
"< 4.52"
>>> observed_result("O=C1c2c(Cl)c(Cl)c(Cl)c(Cl)c2C(=O)N1c1ccccc1CCc1ccccc1")
"< 5.52"
>>> observed_result("COc1ccc(CCc2cccc(N3C(=O)c4ccccc4C3=O)c2)cc1OC")
"< 4.52"
>>> observed_result("O=C1c2c(Cl)c(Cl)c(Cl)c(Cl)c2C(=O)N1c1cccc(CCc2ccccc2)c1")
"< 4.52"
>>> observed_result("COc1ccc(CCc2cccc(N3C(=O)c4c(Cl)c(Cl)c(Cl)c(Cl)c4C3=O)c2)cc1")
"< 4.52"
>>> observed_result("COc1cccc(CCc2ccc(N3C(=O)c4ccccc4C3=O)cc2)c1")
5.46
>>> observed_result("COc1ccc(CCc2ccc(N3C(=O)c4ccccc4C3=O)cc2)cc1OC")
5.37
>>> observed_result("O=C1c2ccccc2C(=O)N1c1ccc(CCc2cccc(O)c2)cc1")
"< 4.52"

Next compound, please.
Sure, the documented pIC50 for COc1cccc(CCc2ccc(N3C(=O)c4c(Cl)c(Cl)c(Cl)c(Cl)c4C3=O)cc2)c1 is < 4.52
